measuredTarget: T1, S291A
T1 construct: % monomer 83.21; also called MICA*008.mIgG2a S291A
T1 chain: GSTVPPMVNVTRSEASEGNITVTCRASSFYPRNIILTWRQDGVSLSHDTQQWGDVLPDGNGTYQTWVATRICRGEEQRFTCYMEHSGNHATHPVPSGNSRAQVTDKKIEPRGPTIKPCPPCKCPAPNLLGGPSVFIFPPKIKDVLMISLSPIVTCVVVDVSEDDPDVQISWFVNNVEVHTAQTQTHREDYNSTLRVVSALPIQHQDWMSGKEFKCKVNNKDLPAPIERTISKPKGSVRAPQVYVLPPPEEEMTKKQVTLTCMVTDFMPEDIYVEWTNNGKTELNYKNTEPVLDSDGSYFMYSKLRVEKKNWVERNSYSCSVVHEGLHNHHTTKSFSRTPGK
experimentalDetails: SPR, Fab over captured MICA*008.mIgG2a Ala variant; KD relative to wild type
measurementType: fold-decrease in affinity
Write the number on its own, no unit after it.

For the binder 1D5 Fab (Fab, V domains shown, Expressed in E. coli as chimera of murine variable and human constant domains; not shown: human IgG1 CH1 constant domain; human kappa CL constant domain) VH: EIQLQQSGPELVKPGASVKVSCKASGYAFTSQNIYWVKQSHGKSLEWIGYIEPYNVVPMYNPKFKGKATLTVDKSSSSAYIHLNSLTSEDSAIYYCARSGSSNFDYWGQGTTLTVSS VL: EIILTQSPTTMAASPGEKITITCSASSSISSHYLHWYQQKSGFSPKLLIYRTSNLASGVPARFSGSGSGTSYSLTIGTMEAEDVATYYCQQGSSLPLTFGAGTKVEIK , give its measured fold-decrease in affinity value.
1.1

Item 2E5.2.3 Fab (Fab, V domains shown) VH: QGQMQQSGAELVKPGASVKLSCKTSGFTFSDNYISWLKQKPGQSLEWIAWIYAGTGGTSYNQKFTAKAQLTVDTSSSTAYMQFSSLTTEDSAIYYCARHDYYGTSGAWFAYWGQGTLVTVSA VL: DVLMTQTPLSLPVSLGDQASLSCRSSQNIVHINGNTYLEWYLQKPGQSPKLLIYKVSNRFSGVPDRFSGSGSGTDFTLKISRVEAEDLGVYYCFQGSHVPWTFGGGTKVEIK : provide fold-decrease in affinity
1.1

For the binder 6F8.7 Fab (Fab, V domains shown) VH: DVQLQGSGPGLVKPSQSLSLTCSVTGYSITNDYYWNWIRQFPGNKLEWMGFISFGGSNNYNPSLKNRISITRDTSKNQFFLKLSSVTTEDTATYYCARYDGRGAWFAYWAQGTLVTVSA VL: DIQMTQSPASLSASVGETVTITCRASGNIHNYLAWYQQKQGKSPQLLVYDAITLADGVPSRFSGSGSGTQYSLKINSLQPEDFGNYYCQHFWSFPLTFGAGTKVEIK , give its measured fold-decrease in affinity value.
2.7

Please indicate fold-decrease in affinity recorded for 7D4.6 Fab (Fab, V domains shown) VH: DVQLQESGPGLVKPSQSLSLTCTVTGYSITSDYAWNWIRQFPRNKLEWMGYINYSGTTNYNPSLKSRISITRDTSKNQFFLQLISVTTEDTATYYCSYYRYDGAWFPYWGQGTLVTVSA VL: DIQMTQSPASLSASVGETVTITCRASGNIHNYLAWYQQKQGKSPQLLVYNAIMLADGVPSRFSASGSGTQYSLKINSLQPEDFGSYYCQHFWSFPLTFGAGTKVEIK
2.7
